System: Adjuvant arthritis (paw volume increase) in rats
protocolText: Adjuvant arthritis (method of Pearson), antiinflammatory action on the 5th day
Format: in vivo, rat (male, Wistar-Lewis strain)
conditionsUsed: Rattus norvegicus, po, 120 h, 50 mg/kg p.o. once daily, 1st to 5th day, vs untreated control, read-out: Adjuvant arthritis (% inhibition at 50 mg/kg orally)
Overview of reported inhibition in vivo at 50 mg/kg across a group of molecules:
Only the number, expressed in %, is required.

Some molecules with known inhibition in vivo at 50 mg/kg results, for comparison:
molecule	quantitativeResult
CC(C)(C)c1cc(-c2csc(CCCC(=O)O)n2)cc(C(C)(C)C)c1O [Example 10]	71
COC(=O)CCc1nc(-c2cc(C(C)(C)C)c(O)c(C(C)(C)C)c2)cs1 [Example 13]	74
Cc1cc(-c2csc(CCC(=O)O)n2)cc(C(C)(C)C)c1O [Example 17]	67
CC(C)(C)c1cc(-c2csc(C=CC(=O)O)n2)cc(C(C)(C)C)c1O [Example 11]	63
CC(C)(C)c1cc(-c2csc(CCC(=O)O)n2)cc(C(C)(C)C)c1O [Example 3]	84

# get_value(readout='inhibition in vivo at 50 mg/kg', item= Cc1nc(-c2cc(C(C)(C)C)c(O)c(C(C)(C)C)c2)cs1 [Comparison preparation, reference compound] )
67

Now consider CC(C)(C)c1cc(-c2csc(C=NOCC(=O)O)n2)cc(C(C)(C)C)c1O [Example 5] and answer again.
51

Try CONC(=O)CCc1nc(-c2cc(C(C)(C)C)c(O)c(C(C)(C)C)c2)cs1 [Example 20] next.
66

Same lookup for CC(C)(C)c1cc(-c2csc(C=C3CCNC3=O)n2)cc(C(C)(C)C)c1O [Example 4] , please.
54

# iterate: CC(C)(C)c1cc(-c2csc(CCC(=O)NO)n2)cc(C(C)(C)C)c1O [Example 7]
83

====

System: Adjuvant arthritis (Perper modification; paw volume) in rats
protocolText: Adjuvant arthritis (Perper modification), paw volume on the 21st day
Assay type: in vivo, rat (male, Wistar-Lewis strain)
conditionsUsed: Rattus norvegicus, po, 504 h; 50 mg/kg/day, 1st to 12th day; read-out: % inhibition on the 21st day, Left paw
measuredQuantity: inhibition in vivo at 50 mg/kg
Returns: string containing the number followed by the unit.

Worked cases, answers included:
compound	systemName	inhibition in vivo at 50 mg/kg
CCOC(=O)CCc1nc(-c2cc(C(C)(C)C)c(O)c(C(C)(C)C)c2)c(C)s1	Adjuvant arthritis (Perper modification; paw volume) in rats	22%
CC(C)(C)c1cc(-c2csc(C=CC(=O)O)n2)cc(C(C)(C)C)c1O	Adjuvant arthritis (Perper modification; paw volume) in rats	44%
COC(=O)CCc1nc(-c2cc(C(C)(C)C)c(O)c(C(C)(C)C)c2)cs1	Adjuvant arthritis (Perper modification; paw volume) in rats	44%

GET /values?readout=inhibition in vivo at 50 mg/kg&item= Cc1sc(CCC(=O)O)nc1-c1cc(C(C)(C)C)c(O)c(C(C)(C)C)c1
39%

Next entry: CC(C)(C)c1cc(-c2csc(CCC(=O)Nc3nn[nH]n3)n2)cc(C(C)(C)C)c1O
42%

Would you kindly repeat that for CONC(=O)CCc1nc(-c2cc(C(C)(C)C)c(O)c(C(C)(C)C)c2)cs1 ?
50%

Another compound to look at: Cc1nc(-c2cc(C(C)(C)C)c(O)c(C(C)(C)C)c2)cs1 [Comparison preparation, reference compound]
12%

Further, for CCOC(=O)CCc1nc(-c2cc(C(C)(C)C)c(O)c(C(C)(C)C)c2)cs1 ?
45%

Continue with Cc1cc(-c2csc(CCC(=O)O)n2)cc(C(C)(C)C)c1O
60%

Next record, please: CC(C)(C)c1cc(-c2csc(C=NOCC(=O)O)n2)cc(C(C)(C)C)c1O
20%
